Source of measurements: paper doi:10.1101/2025.10.09.681351v1

Biological target: EPAS1 (mouse recombinant EPAS1; HIF-2α) (Mus musculus)
Sequence (P97481 whole entry): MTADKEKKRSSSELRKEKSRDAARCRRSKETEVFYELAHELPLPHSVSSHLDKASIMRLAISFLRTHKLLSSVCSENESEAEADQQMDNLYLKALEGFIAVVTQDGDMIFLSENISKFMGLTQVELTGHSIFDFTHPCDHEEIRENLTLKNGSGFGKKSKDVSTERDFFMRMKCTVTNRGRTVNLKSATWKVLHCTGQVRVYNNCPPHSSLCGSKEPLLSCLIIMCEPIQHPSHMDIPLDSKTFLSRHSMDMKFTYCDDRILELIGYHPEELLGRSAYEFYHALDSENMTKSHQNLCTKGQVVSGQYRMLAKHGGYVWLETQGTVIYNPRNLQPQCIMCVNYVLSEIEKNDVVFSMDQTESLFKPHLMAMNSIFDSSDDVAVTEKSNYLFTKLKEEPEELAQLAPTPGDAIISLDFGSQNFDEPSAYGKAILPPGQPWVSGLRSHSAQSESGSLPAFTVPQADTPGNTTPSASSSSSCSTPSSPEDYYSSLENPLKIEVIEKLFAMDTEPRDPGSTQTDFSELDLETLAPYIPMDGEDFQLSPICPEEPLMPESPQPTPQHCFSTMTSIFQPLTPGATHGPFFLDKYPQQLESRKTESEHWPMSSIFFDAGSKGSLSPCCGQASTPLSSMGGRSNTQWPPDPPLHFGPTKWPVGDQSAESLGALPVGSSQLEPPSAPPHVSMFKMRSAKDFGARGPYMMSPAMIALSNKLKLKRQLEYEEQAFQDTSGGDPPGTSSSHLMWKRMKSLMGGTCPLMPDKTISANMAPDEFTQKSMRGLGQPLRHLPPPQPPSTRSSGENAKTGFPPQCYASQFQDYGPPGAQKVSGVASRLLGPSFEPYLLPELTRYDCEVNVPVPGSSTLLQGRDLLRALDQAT
Assay: isothermal titration calorimetry
pKd: −log10 of the molar value.
Experimental readout: pKd

Smiles code	Experimental readout	Measured result
CCCCCCCCC/C=C\C(=O)O	pKd	5.37

----------
Molecular target: recombinant human EPAS1 (Homo sapiens, UniProt Q99814)
Sequence (Q99814 whole entry): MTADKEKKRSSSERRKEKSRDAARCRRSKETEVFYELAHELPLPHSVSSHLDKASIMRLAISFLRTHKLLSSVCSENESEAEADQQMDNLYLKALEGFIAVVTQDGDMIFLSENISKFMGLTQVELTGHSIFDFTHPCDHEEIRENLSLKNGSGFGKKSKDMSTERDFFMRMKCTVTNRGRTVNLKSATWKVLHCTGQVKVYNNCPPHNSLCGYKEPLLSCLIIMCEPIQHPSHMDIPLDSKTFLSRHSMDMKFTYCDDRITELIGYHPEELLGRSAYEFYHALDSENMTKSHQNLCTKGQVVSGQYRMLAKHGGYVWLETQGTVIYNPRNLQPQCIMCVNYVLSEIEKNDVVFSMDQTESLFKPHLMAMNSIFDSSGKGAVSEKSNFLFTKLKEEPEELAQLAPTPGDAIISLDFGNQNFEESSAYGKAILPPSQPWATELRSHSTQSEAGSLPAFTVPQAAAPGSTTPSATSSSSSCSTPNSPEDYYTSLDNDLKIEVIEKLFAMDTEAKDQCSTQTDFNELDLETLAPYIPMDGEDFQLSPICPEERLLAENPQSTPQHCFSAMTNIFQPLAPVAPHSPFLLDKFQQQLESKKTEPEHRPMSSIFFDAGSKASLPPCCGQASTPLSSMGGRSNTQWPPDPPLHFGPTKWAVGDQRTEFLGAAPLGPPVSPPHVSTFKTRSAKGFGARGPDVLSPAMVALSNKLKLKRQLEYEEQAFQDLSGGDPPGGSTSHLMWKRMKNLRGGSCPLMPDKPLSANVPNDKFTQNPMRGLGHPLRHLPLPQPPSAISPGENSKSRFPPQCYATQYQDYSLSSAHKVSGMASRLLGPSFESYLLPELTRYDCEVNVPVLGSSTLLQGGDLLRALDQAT
Test: isothermal titration calorimetry
Type: binding
pKd: −log10 of the molar value.

Compound	Target under test	pKd
CCCCCCCCC/C=C\C(=O)O [BDSF]	recombinant human EPAS1 (Homo sapiens, UniProt Q99814)	5.28
